assay: Cytotoxicity against PIV 3 infected african green monkey Vero cells by trypan blue exclusion method; type: cell-based; settings: chlorocebus sabaeus, Vero cells infected with PIV 3
VALUE_TYPE: CC50

Look up CC50 for this compound: NC(=O)c1ncn([C@@H]2O[C@H](CO)[C@@H](O)[C@H]2O)n1
> 250 µM

====

Listed next: entries and their corresponding CC50.
system: HeLa; assay: Cytotoxicity against Respiratory syncytial virus infected human HeLa cells by trypan blue exclusion method; type: cell-based; conditions: hela

# COMPOUND, CC50
measured = [
    ("COc1cc(/C=C/C(=O)CC(=O)/C=C/c2ccc(OC(=O)CCC(NC(=O)c3ccc(NCc4cnc5nc(N)[nH]c(=O)c5n4)cc3)C(=O)O)c(OC)c2)ccc1OC(=O)CCC(NC(=O)c1ccc(NCc2cnc3nc(N)[nH]c(=O)c3n2)cc1)C(=O)O (stereo not drawn)", "> 82 nM"),
    ("Nc1ncnc2c1ncn2C[C@H](O)CO [(S)-DHPA]", "> 250000 nM"),
]

Any idea what CC50 came out for COc1cc(/C=C/C(=O)C(CCOC(=O)CCC(NC(=O)c2ccc(NCc3cnc4nc(N)[nH]c(=O)c4n3)cc2)C(=O)O)C(=O)/C=C/c2ccc(O)c(OC)c2)ccc1O (stereo not drawn) on HeLa?
> 11 nM

====

Listed next: entries and their corresponding CC50.
test system: HEL; assay: Cytotoxicity against acyclovir-sensitive Herpes simplex virus 1 KOS infected HEL cells by trypan blue exclusion method; format: cell-based; conditions: human

# COMPOUND, ASSAY_SYSTEM, RECORDED_VALUE
records = [
    ("COc1cc(/C=C/C(=O)CC(=O)/C=C/c2ccc(OC(=O)[C@H](Cc3ccccc3)NC(=O)[C@@H](N)Cc3c[nH]c4ccccc34)c(OC)c2)ccc1OC(=O)[C@H](Cc1ccccc1)NC(=O)[C@@H](N)Cc1c[nH]c2ccccc12", "HEL", "19 nM"),
    ("COc1cc(/C=C/C(=O)CC(=O)/C=C/c2ccc(OC(=O)CCC(NC(=O)c3ccc(NCc4cnc5nc(N)[nH]c(=O)c5n4)cc3)C(=O)O)c(OC)c2)ccc1OC(=O)CCC(NC(=O)c1ccc(NCc2cnc3nc(N)[nH]c(=O)c3n2)cc1)C(=O)O (stereo unspecified)", "HEL", "> 82 nM"),
    ("COc1cc(/C=C/C(=O)CC(=O)/C=C/c2ccc(O)c(OC)c2)ccc1O", "HEL", "> 2 nM"),
    ("COc1cc(/C=C/C(=O)CC(=O)/C=C/c2ccc(OCCOC(=O)CCC(NC(=O)c3ccc(NCc4cnc5nc(N)[nH]c(=O)c5n4)cc3)C(=O)O)c(OC)c2)ccc1O (stereo unspecified)", "HEL", "> 119 nM"),
]

Look up CC50 for this compound: COc1cc(/C=C/C(=O)C(CCOC(=O)CCC(NC(=O)c2ccc(NCc3cnc4nc(N)[nH]c(=O)c4n3)cc2)C(=O)O)C(=O)/C=C/c2ccc(O)c(OC)c2)ccc1O (stereo unspecified)
> 11 nM

Look up CC50 for this compound: O=c1[nH]c(=O)n([C@H]2C[C@H](O)[C@@H](CO)O2)cc1/C=C/Br
> 250000 nM

====

assay: in vitro; conditions: human, HeLa cells
VALUE_TYPE: selectivity ratio
Reply with the value as a number alone.

Look up selectivity ratio for this compound: COc1cc(/C=C/C(=O)CC(=O)/C=C/c2ccc(OC(=O)[C@H](Cc3ccccc3)NC(=O)[C@@H](N)Cc3c[nH]c4ccccc34)c(OC)c2)ccc1OC(=O)[C@H](Cc1ccccc1)NC(=O)[C@@H](N)Cc1c[nH]c2ccccc12
9
